- Tested on: SN12C
- experiment: NCI tumour cell line growth inhibition, 48 h
The source made the active and inactive calls. Rule as the data show it: active = GI50 up to about 1.1 µM and inactive = higher.
Respond using exactly one of the listed classes: active, inactive

>>> classassignment("NC(=S)NN=C1Cc2ccccc2C1")
"inactive"

// return assay outcome for CC(C)N(CCCNc1c2ccccc2nc2cccc([N+](=O)[O-])c12)C(C)C
active

// return assay outcome for COc1ccc(/C=N/n2c(Cc3ccccc3)n[nH]c2=O)c(OC)c1
inactive

// return assay outcome for C=CCOC(=O)/C(=C\c1ccc(OC)c(OC)c1)c1ccc(OC)c(OC)c1
inactive

// return assay outcome for Cc1cn(C2CC(n3cc(Cn4cc(Br)c(=O)[nH]c4=O)nn3)C(CO)O2)c(=O)[nH]c1=O (stereo unspecified)
inactive

// return assay outcome for CCOC(=O)/C(=N/Nc1ccc(C)cc1)N1C(=S)N(C)N=C(C)C=C1S
inactive

---

- System: NCI-H226
- experiment: NCI tumour cell line growth inhibition, 48 h
The source made the active and inactive calls. Rule as the data show it: active = GI50 up to about 1.1 µM and inactive = higher.
Respond using exactly one of the listed classes: active, inactive

Some solved cases for reference:
>>> classassignment("C=CCO[C@]1(CC=C)C(=O)C(=O)OC1C1COC(C)(C)O1 (some centres undefined)")
"inactive"
>>> classassignment("CCCCCCCC(=O)OC(COC(=O)Cc1ccccc1)COC(=O)C(C)(C)C (centres undefined)")
"inactive"
>>> classassignment("CC(C)CC(N)C(=O)Nc1ccc2ccccc2c1 (centres undefined)")
"inactive"
>>> classassignment("O=C(/N=C(/Nc1ccccc1)SCS/C(=N\\C(=O)c1ccco1)Nc1ccccc1)c1ccco1")
"inactive"
>>> classassignment("COC(=O)C1=C(O)C(C(=O)OC)[C@@]2(O)[C@@H](C(=O)OC)CC[C@@H]1[C@@H]2C(=O)OC (some centres undefined)")
"inactive"

// return assay outcome for Clc1cc(Cl)cc(C2ON=C(c3ccccc3)N2C23CC4CC(CC(C4)C2)C3)c1 (centres undefined)
inactive

// return assay outcome for CCOC(=O)c1c2c(n(Cc3ccccc3)c1C)C(=O)C(=O)c1ccccc1-2
active

// return assay outcome for CC1(C)OCC2OC3(c4nc(C#N)c(N)o4)OC(C)(C)OC3C2O1 (centres undefined)
inactive

// return assay outcome for O=[N+]([O-])/C=C/c1cc2ccccc2[nH]1
inactive

// return assay outcome for [N-]=[N+]=NCC1OCC(O)C(OCc2ccccc2)C1OCc1ccccc1 (centres undefined)
inactive

// return assay outcome for CN(C)c1ccc(O[Si](Oc2ccc(N(C)C)cc2)(Oc2ccc(N(C)C)cc2)Oc2ccc(N(C)C)cc2)cc1
inactive

// return assay outcome for Cn1ccnc1Sc1ccc(/C=N/NC(=O)c2ccccc2O)cc1[N+](=O)[O-]
inactive

// return assay outcome for CC(=O)OC(=C(C#N)C#N)c1nccnc1C(C)=O
inactive

// return assay outcome for CCN(C(=N)C#N)c1ccccc1
inactive

// return assay outcome for N#CC(C(=O)c1ccccc1F)c1nc2cc(C(F)(F)F)ccc2s1 (centres undefined)
inactive

// return assay outcome for C=CCOC(=O)/C(=C\c1ccc(OC)c(OC)c1)c1ccc(OC)c(OC)c1
inactive

// return assay outcome for NC1=Nc2ccccc2Sc2nccn21
inactive

---

- Tested on: RPMI-8226
- experiment: NCI tumour cell line growth inhibition, 48 h
Active and inactive are the calls of the source. No stated cut-off is given here; in the data, active = GI50 up to about 1.1 µM and inactive = higher.
Reported values of GI50 for individual entries

>>> assayresult("COC1=C(OC)C(=O)C(Cc2c(Cl)nc3sc(C)cn23)=C(C)C1=O")
"11.2 µM (inactive)"
>>> assayresult("CCOC(=O)C(NCc1ccccc1)(NC(=O)c1ccccc1)C(F)(F)F (stereo not given)")
"33.3 µM (inactive)"
>>> assayresult("COc1cc(/C=C/c2ccnc3ccccc23)cc(OC)c1OC")
"3.72 µM (inactive)"
>>> assayresult("Cc1[nH]c(=O)[nH]c(=O)c1/C=C/C(=O)NC(CO)C[S+]([O-])Cc1ccccc1 (stereo not given)")
"> 300 µM (inactive)"

Next:
# lookup: GI50 of CC(C)(C)OC(=O)CN1CCNCCN(CC(=O)OC(C)(C)C)CC1
> 100 µM (inactive)
